Taken from PubChem BioAssay.

Assay Procedure: yeast transport mutant growth inhibition pilot in 384-well plates, post-Golgi transport modulator project (AID 636)
Condition Info: absorbance 615 nm, about 18 h, stronger effect = higher value
For each of the compounds below, state its inhibition.
Give bare numbers, in %.

I have 8 compounds here; please give me inhibition for each one.
1. O=C1c2ccccc2S(=O)(=O)N1CC(O)Cn1c2ccccc2c2ccccc21 (stereo not drawn)
2. CC1NC2(C(=O)N(Cc3ccccc3)c3ccccc32)C2C(=O)N(c3ccccc3)C(=O)C12 (stereo not drawn)
3. CSc1nc2ccccc2c(=O)n1N
4. Cc1cc(NS(=O)(=O)c2ccccc2)no1
5. CC(NC(=O)c1noc2c1CCCCC2)c1ccccc1 (stereo not drawn)
6. CCN(CC)Cc1c(C(=O)OC)nnn1-c1nonc1N
7. COc1ccc(-c2nc(CSCC(=O)N3CCc4ccccc4C3)c(C)o2)cc1OC
8. Cn1c(C(=O)Nc2ccc3c(c2)OCO3)cc2c(=O)n(C)c3ccccc3c21

99.3
-4.13
-3.78
-5.33
-3.59
-7.4
-0.38
-2.18

I have 8 compounds here; please give me inhibition for each one.
1. Cc1nc2ccc(S(=O)(=O)NC(C(=O)Nc3nccs3)C(C)C)cc2s1 (stereo not drawn)
2. COc1ccccc1NC(=O)CSc1nnc(Cc2cccn2C)n1-c1ccc(F)cc1
3. c1nc(NCC2CCCO2)c2[nH]cnc2n1 (stereo not drawn)
4. COc1ccc(N(C)C(=O)CCS(=O)(=O)c2cccc3nonc23)cc1
5. Cc1ccnc(NC(=O)C2CCC(CNc3c(N4CCCC4)c(=O)c3=O)CC2)c1 (stereo not drawn)
6. Cc1cccc(OCCNC(=O)c2ncn[nH]2)c1
7. O=C(Cn1cc2c(n1)CCCCC2)N1CCc2ccccc2C1
8. CCCc1nnc2n1N=C(c1ccc(-c3cc(Cl)ccc3Cl)o1)CS2

[0.13, -4.8, -1.84, -9.86, -0.64, 0, -2.18, -1.82]

I have 4 compounds here; please give me inhibition for each one.
1. Cc1ccccc1OCc1nnc2n1CC(C)S2 (stereo not drawn)
2. CC1=C(C(=O)Nc2cccnc2)C(c2ccc(C(C)C)cc2)n2ncnc2N1 (stereo not drawn)
3. Cn1c(=O)cc(NCCc2ccccc2)[nH]c1=O
4. CCOC(=O)c1ccc(N=c2sc(C(=O)OC)cc(=O)n2Cc2ccco2)cc1

1: -4.27; 2: -2.13; 3: -1.82; 4: -3.21

I have 3 compounds here; please give me inhibition for each one.
1. COc1ccc(N2CCN(Cc3nc4c(c(=O)n(C)c(=O)n4C)n3Cc3ccccc3C)CC2)cc1
2. Cc1c(C(=O)OCc2ccccc2)[nH]c2c1C(=O)CC(c1ccco1)C2 (stereo not drawn)
3. O=S(=O)(c1ccccc1)N1CCN(S(=O)(=O)c2ccccc2)C1

1. -2.4
2. 4.87
3. -3.21

###

Assay Procedure: Her2 expression decrease, cell viability multiplex – SKBR3 breast tumor cells, AlphaScreen, ATP viability, primary screen (AID 461);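 for viability: percent of carrier control wells set as 100% viability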
Condition Info: SKBR3 Her2 protein level, 18-24 h, measured here: SKBR3 viability, ATP luminescence, at 10 µM
Binarize viability at 90%; below is 1 (yes), at or above is 0 (no).

Compound	Group
CCOc1ccccc1N(CC(=O)N1CCCCCC1)S(C)(=O)=O	0 (no)
Nc1nc2n(n1)C(c1cccc(Br)c1)CC(c1ccccc1)N2 (configuration not stated)	0 (no)
O=C(NC1CCCc2ccccc21)c1ccc(CNc2c(N3CCOCC3)c(=O)c2=O)cc1 (configuration not stated)	1 (yes)

Bench note: check whether COc1ccc(S(=O)(=O)NCC(c2cccnc2)N2CCN(C)CC2)cc1C (configuration not stated) shows viability below 90%
0 (no)

Bench note: check whether "COC(=O)c1oc2ccc(Br)cc2c1NC(C)=O" shows viability below 90%
0 (no)

Bench note: check whether CC1CCCN(C(=O)CN2C(=O)c3ccccc3C2=O)C1 (configuration not stated) shows viability below 90%
0 (no)

Bench note: check whether "COc1c(S(=O)(=O)n2nc(C)cc2C)ccc(Cl)c1Cl" shows viability below 90%
0 (no)

Bench note: check whether "C=CCc1ccccc1OCCCCN1CCCC1" shows viability below 90%
1 (yes)

Bench note: check whether "Cn1c(=O)c2c(nc(CN3CCN(Cc4ccccc4)CC3)n2Cc2cccc(Cl)c2)n(C)c1=O" shows viability below 90%
0 (no)

Bench note: check whether "CC(=O)C1=C(N2CCCCC2)CCC1=O" shows viability below 90%
1 (yes)

Bench note: check whether COc1ccc(C2c3c(oc4ccccc4c3=O)C(=O)N2c2ccc(C)cn2)cc1OC (configuration not stated) shows viability below 90%
1 (yes)

###

System Name: Receptor tyrosine-protein kinase erbB-2 (Homo sapiens)
Assay Procedure: Her2 expression decrease, cell viability multiplex – SKBR3 breast tumor cells, AlphaScreen, ATP viability, primary screen (AID 461);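 for Her2 level: lower value means less Her2 protein in the cells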;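 for viability: percent of carrier control wells set as 100% viability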
Condition Info: 18-24 h, at 10 µM, stronger effect = lower value
Active and inactive are the calls of the source.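 How the source made its calls: active means Her2 level under about 52% in both replicate screens, with viability over 70% of control (limit read from the data); inconclusive means Her2 under the limit in one screen only, or viability under 70%; inactive means Her2 level above the set limit.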
For each of the compounds below, state its Her2 level.

Here is how some compounds turned out for Her2 level.
Compound	System Name	Test Readout	Test Value
CCOC(=O)c1cccc(NC(=O)CNS(=O)(=O)c2cccs2)c1	Receptor tyrosine-protein kinase erbB-2 (Homo sapiens)	Her2 level	92% (inactive)
COC(=O)Cn1c(=NC(=O)CSCC(=O)Nc2cc(C)on2)sc2ccccc21	Receptor tyrosine-protein kinase erbB-2 (Homo sapiens)	Her2 level	90% (inactive)

I have 3 compounds here; please give me Her2 level for each one.
1. CCOC(=O)CCc1c(C)nc2cc(-c3ccc(F)cc3)[nH]n2c1=O
2. O=C(OCC(=O)c1ccc[nH]1)c1ccc(S(=O)(=O)N2CCCCC2)cc1
3. CCOC(=O)N1CCC(c2cc(=O)n3[nH]c(C)c(-c4ccc(F)cc4)c3n2)CC1

1: 99% (inactive); 2: 98% (inactive); 3: 80.5% (inactive)

I have 5 compounds here; please give me Her2 level for each one.
1. COc1ccc(N2CCN(CCCNS(=O)(=O)c3c(C)noc3/C=C/N(C)C)CC2)cc1
2. COc1ccccc1N(CC(=O)Nc1cccnc1)S(C)(=O)=O
3. CCCNC(=O)C1CC(=O)N(c2ccc(OCC(=O)Nc3cc(C)cc(C)c3)cc2)C1 (stereo not given)
4. c1ccc(N2CCN(Cc3cn4cccnc4n3)CC2)cc1
5. CC1CCc2nn(CC(=O)NCc3ccc4c(c3)OCO4)cc2C1 (stereo not given)

1. 94.5% (inactive)
2. 108% (inactive)
3. 122% (inactive)
4. 94% (inactive)
5. 88% (inactive)

###

Assay Procedure: MRP1 drug-resistance reversers in H69AR cells – cell-based, doxorubicin co-treatment, pilot screen (AID 601)
Condition Info: H69AR cells + 2 uM doxorubicin, CellTiter-Glo, 72 h; measured here: viability with 2 uM doxorubicin; at 10 µM; stronger effect = lower value
Binarize viability at 80%; below is Fulfilled, at or above is Not fulfilled.

Compound	Group
CCCc1cc(C(=O)Nc2ccccc2SC)no1	Not fulfilled
COC(=O)c1ccsc1NC(=O)CN1C(=O)CCC1=O	Fulfilled
CCCC(=O)Nc1nc2ccc(S(N)(=O)=O)cc2s1	Fulfilled
COc1ccc(-c2nc(C)c(C(C)=O)n2O)cc1OC	Not fulfilled
CC(C)(C)SCCNC(=O)COc1ccc(Cl)cc1	Not fulfilled

Bench note: check whether CCn1cc(C(=O)NCC2CCCO2)c(=O)c2cc(S(=O)(=O)N(C)C)ccc21 (configuration not stated) shows viability below 80%
Not fulfilled

Bench note: check whether CCOC(=O)C1CCN(c2c(NC3CCCc4ccccc43)c(=O)c2=O)CC1 (configuration not stated) shows viability below 80%
Not fulfilled

Bench note: check whether "N#CCCN1CCN(S(=O)(=O)c2ccc(S(=O)(=O)NC3CCCCC3)cc2)CC1" shows viability below 80%
Not fulfilled

Bench note: check whether "CCOC(=O)c1[nH]c(C)c(C(=O)NC)c1C" shows viability below 80%
Not fulfilled

Bench note: check whether "COc1nc(Oc2ccc(=O)n(C)n2)nc(N(C)C)n1" shows viability below 80%
Not fulfilled

###

For each of the compounds below, state its viability.
Assay Procedure: MRP1 drug-resistance reversers in H69AR cells – cell-based, doxorubicin co-treatment, pilot screen (AID 601)
Condition Info: H69AR cells + 2 uM doxorubicin, CellTiter-Glo, 72 h; measured here: viability with 2 uM doxorubicin; at 10 µM; stronger effect = lower value
One number for each entry, in %.

Compound	viability, %
CN(C)CCCN1C(=O)CSC1c1ccccc1 (stereo not given)	90.1
Cc1cccc(C)c1OCc1nnc(SCC(=O)Nc2ccccc2F)o1	90.2
Cc1ccc2cccc(SCC(=O)N3CCOCC3)c2n1	91.2
CC(=O)c1cc2c(cc1NC(=O)CN1CCN(C(=O)c3ccco3)CC1)OCO2	89.5

Could you now consider this next compound?
Entry "O=C(Cn1cc2c(n1)CCCCC2)N1CCc2ccccc21" has what viability?
91.8

###

Assay Procedure: RAM signaling pathway blockade in yeast – S. cerevisiae, Pdr1DBD-CYC8 efflux-inhibited sensitized strain, primary screen (AID 1298);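 note: 0% = DMSO untreated cells without growth and 100% = 10 µM 1-NA-PP1 full growth; higher means more yeast growth rescued from 5-FOA killing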
Condition Info: S. cerevisiae cbk1-as DSE1-URA3 strain, 5-FOA growth OD615, 2 d; at 50 µM; stronger effect = higher value
For each of the molecules below, state its RAM network inhibition.
Give bare numbers, in %.

Here is how some molecules turned out for RAM network inhibition.
Molecule	Unit Abbrev	RAM network inhibition
O=C(Nc1nc(-c2ccco2)c(-c2ccco2)s1)C1CC(=O)N(c2ccc3c(c2)OCCO3)C1 (centres undefined)	%	4.02
CC1CN(c2ccc(Oc3ccccc3)cc2)c2nc3c(c(=O)n(CC(N)=O)c(=O)n3C)n2C1 (centres undefined)	%	6.01
CCOC(=O)c1nc2sc3c(c2c(=O)[nH]1)CCCC3	%	3.93

Could you now consider this next molecule?
Entry "C=CCOc1ccc(/C(CC)=N/O)c(OC)c1" has what RAM network inhibition?
-0.68
